Taken from patent US4895842A.

- TARGET ENTITY: UniProt:P00747
- Sequence (P00747 581-810 limits assumed): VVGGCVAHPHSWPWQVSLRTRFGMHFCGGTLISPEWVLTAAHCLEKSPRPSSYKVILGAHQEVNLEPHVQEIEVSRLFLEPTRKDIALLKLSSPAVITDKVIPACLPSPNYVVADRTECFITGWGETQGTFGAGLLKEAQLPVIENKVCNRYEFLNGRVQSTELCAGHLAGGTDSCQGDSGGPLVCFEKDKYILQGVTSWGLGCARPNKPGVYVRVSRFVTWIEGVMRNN
- Sequence (P00747 97-580 partner limits assumed): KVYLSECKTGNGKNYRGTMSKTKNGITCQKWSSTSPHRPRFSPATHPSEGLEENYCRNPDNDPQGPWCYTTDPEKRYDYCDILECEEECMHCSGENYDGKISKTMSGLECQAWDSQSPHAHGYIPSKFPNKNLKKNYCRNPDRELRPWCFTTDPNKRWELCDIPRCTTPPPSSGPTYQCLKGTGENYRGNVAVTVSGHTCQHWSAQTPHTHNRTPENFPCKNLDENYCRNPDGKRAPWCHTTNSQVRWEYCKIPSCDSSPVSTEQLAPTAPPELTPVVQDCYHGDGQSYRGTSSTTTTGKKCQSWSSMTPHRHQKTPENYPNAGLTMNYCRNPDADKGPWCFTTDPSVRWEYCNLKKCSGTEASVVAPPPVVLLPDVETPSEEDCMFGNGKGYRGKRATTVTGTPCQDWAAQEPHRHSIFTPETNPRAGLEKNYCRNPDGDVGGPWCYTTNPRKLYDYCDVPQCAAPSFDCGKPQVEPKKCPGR
- MEASUREMENT DESCRIPTION: biochemical
- TEST CONTEXT: read-out: Plasmin S-2251 (I50)
pIC50: −log10 of the molar value.
MEASUREMENT LABEL: pIC50

INSERT INTO assay_data (compound, target_entity, qualifier_operator, reading) VALUES
  ('CC(=O)c1ccc(NC(=O)C(Cc2ccc(Oc3cc(Cl)ccc3[N+](=O)[O-])cc2)NC(=O)C2CCC(CN)CC2)cc1 (stereo not shown)', 'UniProt:P00747', '=', 6.41),
  ('NCc1ccc(C(=O)N[C@@H](Cc2ccc(OCc3ccccc3)cc2)C(=O)NC2CCC(O)CC2)cc1 (stereo partly shown)', 'UniProt:P00747', '=', 4.48),
  ('C=CCOc1ccc(C[C@H](NC(=O)[C@H]2CC[C@H](CN)CC2)C(=O)Nc2ccc(C(C)=O)cc2)cc1', 'UniProt:P00747', '=', 5.34),
  ('NCc1ccc(C(=O)N[C@@H](Cc2ccc(OCc3ccccc3)cc2)C(=O)Nc2ccc(C(=O)O)cc2)cc1', 'UniProt:P00747', '<', 3.00),
  ('Cc1ccc(NC(=O)[C@H](Cc2ccc(OCc3ccccc3)cc2)NC(=O)[C@H]2CC[C@H](CN)CC2)cc1C', 'UniProt:P00747', '=', 5.47),
  ('CC1CCC(NC(=O)C(Cc2ccc(OCc3cccc(Cl)c3)cc2)NC(=O)C2CCC(CN)CC2)CC1C (stereo not shown)', 'UniProt:P00747', '=', 6.16),
  ('NC[C@H]1CC[C@H](C(=O)N[C@@H](Cc2ccc(OCc3ccccc3)cc2)C(=O)Nc2ccc(C(=O)c3ccccc3)cc2)CC1', 'UniProt:P00747', '=', 5.89);
